# TARGET OR TEST SYSTEM: FXR (Homo sapiens (Human), UniProt Q96RI1)
# Sequence (Q96RI1 262-486): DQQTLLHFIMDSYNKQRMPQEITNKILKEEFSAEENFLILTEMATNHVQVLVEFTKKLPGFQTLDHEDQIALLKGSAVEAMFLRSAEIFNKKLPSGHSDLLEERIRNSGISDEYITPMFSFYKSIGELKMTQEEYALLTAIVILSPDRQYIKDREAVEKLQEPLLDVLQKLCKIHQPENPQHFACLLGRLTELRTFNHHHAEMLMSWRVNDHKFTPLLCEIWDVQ
# PROCEDURE DETAILS: transient human FXR/Gal4-luciferase reporter assay
# Format: cell-based
# SETTINGS: Gal4-hFXR fusion construct, HEK293 reporter cells; response relative to 8 μM GW-4064
pEC50: −log10 of the molar value.
pEC50 by entry:

>  <COMPOUND>
CC(F)(F)c1nc(C23CCC(CN(C(=O)C4CC(O)(C(F)(F)F)C4)c4cccc(-c5ccc(C(O)C(F)F)cc5)c4)(CC2)CC3)no1 (single isomer, unassigned) [Example 628 (second eluting isomer)]

>  <pEC50>
6.89

$$$$
>  <COMPOUND>
Cc1nc2ccc(-c3cccc(N(CC45CCC(c6cnc(C(F)(F)F)nc6)(CC4)OC5)C(=O)C45CC(F)(C4)C5)c3)cc2s1

>  <pEC50>
5.66

$$$$
>  <COMPOUND>
CC(C)c1nc(C23CCC(CN(C(=O)C45CC(F)(C4)C5)c4cccc(-c5cnc(C(F)(F)F)nc5)c4)(CC2)CC3)no1

>  <pEC50>
6.62

$$$$
>  <COMPOUND>
CC(C)(O)CN1CC=C(c2cccc(N(CC34CCC(c5noc(C(C)(C)F)n5)(CC3)CC4)C(=O)C34CC(F)(C3)C4)c2)CC1

>  <pEC50>
6.80

$$$$
>  <COMPOUND>
O=C(N(CC12CCC(c3nc(C4CC4)no3)(CC1)CC2)c1cccc(-c2nccc(C(F)(F)F)n2)c1)C12CC(F)(C1)C2

>  <pEC50>
6.36

$$$$
>  <COMPOUND>
O=C(N(CC12CCC(c3nc(C4CC4)no3)(CC1)CC2)c1cccc(-c2cnc(C3CC3)nc2)c1)C12CC(F)(C1)C2

>  <pEC50>
7.64

$$$$
>  <COMPOUND>
CC(C)(O)c1ccc(-c2cccc(N(CC34CCC(c5noc(C(C)(C)F)n5)(CC3)CC4)C(=O)NC3CCC(O)(C(F)(F)F)CC3)c2)cc1 (single isomer, unassigned) [Example 601]

>  <pEC50>
6.61

$$$$
>  <COMPOUND>
Cc1cc(-c2cccc(N(CC34CCC(c5nc(C6CC6)no5)(CC3)CC4)C(=O)C34CC(F)(C3)C4)c2)cnc1F

>  <pEC50>
6.47

$$$$
>  <COMPOUND>
O=C(N(CC12CCC(c3nc(C4CC4)no3)(CC1)CC2)c1cccc(-c2cnc3cc(Cl)cnn23)c1)C12CC(F)(C1)C2

>  <pEC50>
6.65

$$$$
>  <COMPOUND>
O=C(N(CC12CCC(c3nc(C4CC4)no3)(CC1)CC2)c1cccc(-c2ccn3ncnc3c2)c1)C12CC(F)(C1)C2

>  <pEC50>
5.77

$$$$
>  <COMPOUND>
COc1ccc(-c2cccc(N(CC34CCC(c5nc(C6CC6)no5)(CC3)CC4)C(=O)C34CC(F)(C3)C4)c2)cc1OC

>  <pEC50>
6.28

$$$$
>  <COMPOUND>
CC(C)c1noc(C23CCC(CN(C(=O)C45CC(F)(C4)C5)c4cccc(-c5ccc(OC(F)F)cc5)c4)(CC2)CC3)n1

>  <pEC50>
7.33

$$$$
>  <COMPOUND>
CCOc1ccc(-c2cccc(N(CC34CCC(c5nc(C(C)(C)C)no5)(CC3)CC4)C(=O)C34CC(F)(C3)C4)c2)cn1

>  <pEC50>
6.83

$$$$
>  <COMPOUND>
COc1ccc(C23CCC(CN(C(=O)C4CC(F)(F)C4)c4cccc(-c5ccc6nc(C)sc6c5)c4)(CC2)CO3)cc1

>  <pEC50>
5.80

$$$$
>  <COMPOUND>
COc1ncc(-c2cccc(N(CC34CCC(c5nc(C(C)(C)C)no5)(CC3)CC4)C(=O)C34CC(F)(C3)C4)c2)cn1

>  <pEC50>
7.15

$$$$
>  <COMPOUND>
CC1(c2nc(C34CCC(CN(C(=O)C56CC(F)(C5)C6)c5cccc(-c6ccc(NS(C)(=O)=O)cc6)c5)(CC3)CC4)no2)CC1

>  <pEC50>
7.03

$$$$
>  <COMPOUND>
Cc1nc2ccc(-c3cccc(N(CC45CCC(c6nc(C7CC7)no6)(CC4)CC5)C(=O)C45CC(F)(C4)C5)c3)cn2n1

>  <pEC50>
6.60

$$$$
>  <COMPOUND>
O=C(N(CC12CCC(c3nc(C4CC4)no3)(CC1)CC2)c1cccc(-c2cccc(C(F)(F)F)c2)c1)C12CC(F)(C1)C2

>  <pEC50>
6.08

$$$$
>  <COMPOUND>
COc1ccc(-c2cccc(N(CC34CCC(c5nnc(C6CC6)o5)(CC3)CC4)C(=O)C34CC(F)(C3)C4)c2)cn1

>  <pEC50>
6.81

$$$$
>  <COMPOUND>
CC(C)(O)c1ccc(-c2cccc(N(CC34CCC(c5noc(C(C)(C)F)n5)(CC3)CC4)C(=O)NC3CCC(O)(C(F)(F)F)CC3)c2)cc1 (single isomer, unassigned) [Example 600]

>  <pEC50>
7.80

$$$$
>  <COMPOUND>
CC(C)c1nc(C23CCC(CN(C(=O)C45CC(F)(C4)C5)c4cccc(-c5cnc(C6CC6)nc5)c4)(CC2)CC3)no1

>  <pEC50>
7.24

$$$$
>  <COMPOUND>
N#Cc1cnc2ccc(-c3cccc(N(CC45CCC(c6nc(C7CC7)no6)(CC4)CC5)C(=O)C45CC(F)(C4)C5)c3)nn12

>  <pEC50>
6.41

$$$$
>  <COMPOUND>
Cn1nc(C23CCC(CN(C(=O)C45CC(F)(C4)C5)c4cccc(-c5ccc6[nH]c(=O)oc6c5)c4)(CC2)CC3)cc1C1CC1

>  <pEC50>
6.84

$$$$
>  <COMPOUND>
O=C(N(CC12CCC(c3nc(C4CC4)no3)(CC1)CC2)c1cccc(-c2ccc(OC(F)F)cc2)c1)C12CC(F)(C1)C2

>  <pEC50>
7.82

$$$$
>  <COMPOUND>
CC(C)(C)NC(=O)N(CC12CCC(c3noc(C(F)(F)F)n3)(CC1)CC2)c1cccc(-c2ccc(C(C)(C)O)cc2)c1

>  <pEC50>
7.39

$$$$
